# System: GPI-PLC
# SETTINGS: read-out: IC50 for inhibition of the GPI-PLC; isolated intact hcDIGs; Fig. 4 Panels B, D
READOUT_NAME: IC50

Lab book: IC50 of CCCCCCCCCCCCP1(=O)O[C@@H]2[C@H](O)[C@@H](O)[C@H](O)[C@@H](O)[C@@H]2O1 (mixture of isomers) [GPI-2350] noted as 1 µM
